# System: Mycosphaerella graminicola; Anamorph: Septoria tritici; Bayer Code SEPTTR
# MEASUREMENT_NOTES: Fungicidal activity: leaf blotch of wheat, protectant and curative treatment of inoculated wheat plants
# Format: in vivo
# EXPERIMENTAL_PARAMETERS: Zymoseptoria tritici, 24 h; One-Day Protectant (1DP), 100 ppm, wheat plants (variety Yuma), percent control vs untreated inoculated plants; read-out: SEPTTR 100 PPM 1DP (% Disease Control rating)
MEASUREMENT_NAME: pest or weed control at 100 ppm

Worked examples follow.
[[record]]
compound = "Nc1nc(=O)n(S(=O)(=O)c2ccc(Cl)cc2Cl)cc1F [Cmpd 13]"
measurement_name = "pest or weed control at 100 ppm"
result_value = "76 to 100%"

[[record]]
compound = "Cc1cc(Oc2ncc(C(F)(F)F)cc2Cl)ccc1S(=O)(=O)n1cc(F)c(N)nc1=O [Cmpd 23]"
measurement_name = "pest or weed control at 100 ppm"
result_value = "76 to 100%"


So, CS(=O)(=O)n1cc(F)c(N)nc1=O [Cmpd 27] ? Its pest or weed control at 100 ppm was 76 to 100%

So, COc1ccc(S(=O)(=O)n2cc(F)c(NC(=S)Nc3ccccc3)nc2=O)cc1 [Cmpd 45] ? Its pest or weed control at 100 ppm was 26 to 50%

So, CS(=O)(=O)c1ccc(S(=O)(=O)n2cc(F)c(N)nc2=O)cc1 [Cmpd 15] ? Its pest or weed control at 100 ppm was 51 to 75%

###

Overview of reported pest or weed control at 100 ppm across a group of molecules:
# Tested on: Mycosphaerella graminicola; Anamorph: Septoria tritici; Bayer Code SEPTTR
# MEASUREMENT_NOTES: Fungicidal activity: leaf blotch of wheat, protectant and curative treatment of inoculated wheat plants
# Format: in vivo
# EXPERIMENTAL_PARAMETERS: Zymoseptoria tritici, 24 h; One-Day Protectant (1DP), 100 ppm, wheat plants (variety Yuma), percent control vs untreated inoculated plants; read-out: SEPTTR 100 PPM 1DP (% Disease Control rating)

[[record]]
query_smiles = "O=C(Nc1nc(=O)n(S(=O)(=O)c2ccc(Cl)cc2)cc1F)c1ccccc1"
result_value = "76 to 100%"

[[record]]
query_smiles = "Nc1nc(=O)n(S(=O)(=O)Cc2ccc(Br)cc2)cc1F"
result_value = "76 to 100%"

[[record]]
query_smiles = "CC(C)(C)C(=O)Nc1nc(=O)n(S(=O)(=O)c2ccc(Cl)cc2)cc1F"
result_value = "76 to 100%"


Now consider the entry below.
So, `Cc1ccc(C(=O)Nc2nc(=O)n(S(=O)(=O)c3ccc(Cl)cc3)cc2F)cc1` ? Its pest or weed control at 100 ppm was 0 to 25%

###

# System: Mycosphaerella graminicola; Anamorph: Septoria tritici; Bayer Code SEPTTR
# MEASUREMENT_NOTES: Fungicidal activity: leaf blotch of wheat, protectant and curative treatment of inoculated wheat plants
# Format: in vivo
# EXPERIMENTAL_PARAMETERS: Zymoseptoria tritici, 24 h; One-Day Protectant (1DP), 100 ppm, wheat plants (variety Yuma), percent control vs untreated inoculated plants; read-out: SEPTTR 100 PPM 1DP (% Disease Control rating)
MEASUREMENT_NAME: pest or weed control at 100 ppm

Worked examples follow.
[[record]]
query_smiles = "Nc1nc(=O)n(S(=O)(=O)Cc2ccccc2)cc1F"
result_value = "76 to 100%"

[[record]]
query_smiles = "O=c1nc(NC(=S)Nc2ccccc2)c(F)cn1S(=O)(=O)c1cccs1"
result_value = "0 to 25%"

[[record]]
query_smiles = "Nc1nc(=O)n(S(=O)(=O)c2c(Cl)cccc2Cl)cc1F"
result_value = "76 to 100%"

[[record]]
query_smiles = "CN(C)/C=N/c1nc(=O)n(S(=O)(=O)c2ccc(Cl)cc2)cc1F"
result_value = "76 to 100%"

[[record]]
query_smiles = "Nc1nc(=O)n(S(=O)(=O)c2ccc(Cl)c(Cl)c2)cc1F"
result_value = "76 to 100%"

[[record]]
query_smiles = "CN(C)/C=N/c1nc(=O)n(S(=O)(=O)c2ccccc2)cc1F"
result_value = "76 to 100%"

[[record]]
query_smiles = "Nc1nc(=O)n(S(=O)(=O)c2ccccc2)cc1F"
result_value = "76 to 100%"

[[record]]
query_smiles = "O=C(Nc1nc(=O)n(S(=O)(=O)c2ccc(Cl)cc2)cc1F)c1ccc(Cl)cc1"
result_value = "76 to 100%"

[[record]]
query_smiles = "COc1ccc(S(=O)(=O)n2cc(F)c(NC(=O)Nc3ccccc3)nc2=O)cc1"
result_value = "0 to 25%"

[[record]]
query_smiles = "CN(C)/C=N/c1nc(=O)n(S(=O)(=O)c2cccs2)cc1F"
result_value = "76 to 100%"


So, `COc1ccc(S(=O)(=O)n2cc(F)c(/N=C/N(C)C)nc2=O)cc1` ? Its pest or weed control at 100 ppm was 76 to 100%

###

# System: Mycosphaerella graminicola; Anamorph: Septoria tritici; Bayer Code SEPTTR
# MEASUREMENT_NOTES: Fungicidal activity: leaf blotch of wheat, protectant and curative treatment of inoculated wheat plants
# Assay type: in vivo
# EXPERIMENTAL_PARAMETERS: Zymoseptoria tritici, 24 h; One-Day Protectant (1DP), 100 ppm, wheat plants (variety Yuma), percent control vs untreated inoculated plants; read-out: SEPTTR 100 PPM 1DP (% Disease Control rating)
Overview of reported pest or weed control at 100 ppm across a group of compounds:

Worked examples follow.
[[record]]
compound = "COc1ccc(S(=O)(=O)n2cc(F)c(N)nc2=O)cc1 [Cmpd 26]"
result_value = "76 to 100%"

[[record]]
compound = "O=C(Nc1ccccc1)Nc1nc(=O)n(S(=O)(=O)c2c(Cl)cccc2Cl)cc1F [Cmpd 42]"
result_value = "0 to 25%"


So, CC(=O)Nc1nc(=O)n(S(=O)(=O)c2ccc(Cl)cc2)cc1F [Cmpd 34] ? Its pest or weed control at 100 ppm was 76 to 100%
